Where do the numbers come from? From paper PMC10397247.

# Study target: T1, 4H570-AA
# T1 chain: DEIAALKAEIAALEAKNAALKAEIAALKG
# Experiment notes: two-hybrid library CCmax;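 note: natural log of median RNA to DNA barcode read ratio; higher means stronger binding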
# Condition summary: mean of both orientations
Measurement type: interaction score

// known answers, use as guide
[[record]]
binder = "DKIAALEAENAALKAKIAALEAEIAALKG [4H2274-AA]"
assay_result = -1.8

[[record]]
binder = "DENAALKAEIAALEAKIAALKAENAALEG [4H1579-AA]"
assay_result = -0.453

[[record]]
binder = "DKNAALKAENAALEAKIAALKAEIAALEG [4H3753-AA]"
assay_result = -1

[[record]]
binder = "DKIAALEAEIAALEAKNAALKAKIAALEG [4H2109-AA]"
assay_result = -0.239

[[record]]
binder = "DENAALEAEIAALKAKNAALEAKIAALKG [4H1142-AA]"
assay_result = -0.319


1: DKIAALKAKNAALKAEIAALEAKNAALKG [4H3016-AA]
2: DEIAALEAKNAALKAEIAALKAEIAALKG [4H458-AA]
Of 1 and 2 , which one carries the higher reported interaction score? Answer by stating the label of the chosen item. 2
(2: -0.947, 1: -1.4)

I: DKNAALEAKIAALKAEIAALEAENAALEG [4H3395-AA]
II: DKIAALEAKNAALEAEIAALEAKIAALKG [4H2438-AA]
Lower value of interaction score belongs to which: I or II ? Please respond with the label that marks your chosen entry. I

a: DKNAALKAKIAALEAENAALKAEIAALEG [4H3865-AA]
b: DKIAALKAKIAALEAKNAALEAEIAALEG [4H2865-AA]
# argmax over interaction score for candidates a and b API: response body contains the label of the selected item. b

a: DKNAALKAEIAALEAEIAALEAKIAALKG [4H3590-AA]
b: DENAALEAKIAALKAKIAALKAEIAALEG [4H1385-AA]
c: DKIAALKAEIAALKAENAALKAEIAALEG [4H2649-AA]
Put these in order: smallest interaction score first, largest last. Answer by writing out the labels in the requested order. b, a, c
(b: -0.556, a: -0.136, c: 1.86)
